biological target: PDE4; assay: PDE4 assay: [3H] cAMP Scintillation Proximity Assay (SPA) of phosphodiesterase activity; details: yeast extract of recombinant PDE4 enzyme, 30 nM [3H] cAMP, 1 h at room temperature, pH 7.5
PARAMETER: pIC50
# pIC50 = -log10(concentration in molar units)

[Q] Using the record for COc1cccc(Nc2cc(-c3cccc(-c4cccc(C(N)=O)c4)c3)nc3c2C(=O)NCC3)c1 , report its pIC50.
[A] 9.55

[Q] Same thing, different compound: COc1cccc(Nc2cc(-c3ccncc3)nc3c2C(=O)NCC3)c1
[A] 8.44

[Q] Same thing, different compound: O=C1NCCc2nc(-c3ccccc3)cc(Nc3n[nH]c4ncccc34)c21
[A] 8.22

[Q] Same thing, different compound: COc1cccc(Nc2nc(-c3ccccc3)nc3c2C(=O)NCC3)c1
[A] 7.28

[Q] Same thing, different compound: COc1cccc(Nc2cc(-c3ccccc3)nc3c2C(=O)NCC3C)c1 (stereo not drawn)
[A] 6.19

[Q] Same thing, different compound: O=C1NCCc2nc(-c3ccccc3)cc(Nc3ccc4ncccc4c3)c21
[A] 8.64

[Q] Same thing, different compound: O=C1NCCc2nc(-c3ccccc3)cc(Nc3ccc(CCO)cc3)c21
[A] 7.92

[Q] Same thing, different compound: N#C/N=C1\NCCc2nc(-c3ccc(F)c(F)c3)cc(Nc3cccc4ncccc34)c21
[A] 9.05

[Q] Same thing, different compound: O=C1NCCc2nc(-c3ccccc3)cc(Nc3cccc4ncccc34)c21
[A] 9.02

* * *

target: PDE4; test: PDE4 assay: [3H] cAMP Scintillation Proximity Assay (SPA) of phosphodiesterase activity; assay type: biochemical; settings: yeast extract of recombinant PDE4 enzyme, 30 nM [3H] cAMP, 1 h at room temperature, pH 7.5
PARAMETER: pIC50
# pIC50 = -log10(concentration in molar units)

[Q] Using the record for O=C(O)c1ccc(Nc2cc(-c3ccccc3)nc3c2C(=O)NCC3)cc1 , report its pIC50.
[A] 8.05

[Q] Same thing, different compound: COc1cccc(Nc2cc(-c3cccc(-c4cccc(C(=O)NCCN(C)C)c4)c3)nc3c2C(=O)NCC3)c1
[A] 9.64

[Q] Same thing, different compound: COc1cccc(Nc2cc(-c3cccc(-c4cc(C(=O)O)ccc4O)c3)nc3c2C(=O)NCC3)c1
[A] 8.00

[Q] Same thing, different compound: Cc1c(F)cc(C(=O)NC2CC2)cc1-c1cccc(-c2cc(Nc3cccc4ncccc34)c3c(n2)CCNC3=O)c1
[A] 10.30

[Q] Same thing, different compound: COc1cccc(Nc2cc(-c3cccc(-c4cc(C(=O)O)ccc4Cl)c3)nc3c2C(=O)NCC3)c1
[A] 9.09
